Assay: total protein half-life in vivo (active degradation + dilution); higher = more stable protein
Settings: wild type E. coli NCM3722; growth: C-lim chemostat; doubling time 12 h
assay endpoint: total protein half-life in vivo (h)

sequence code | reported
MAIDENKQKALAAALGQIEKQFGKGSIMRLGEDRSMDVETISTGSLSLDIALGAGGLPMGRIVEIYGPESSGKTTLTLQVIAAAQREGKTCAFIDAEHALDPIYARKLGVDIDNLLCSQPDTGEQALEICDALARSGAVDVIVVDSVAALTPKAEIEGEIGDSHMGLAARMMSQAMRKLAGNLKQSNTLLIFINQIRMKIGVMFGNPETTTGGNALKFYASVRLDIRRIGAVKEGENVVGSETRVKVVKNKIAAPFKQAEFQILYGEGINFYGELVDLGVKEKLIEKAGAWYSYKGEKIGQGKANATAWLKDNPETAKEIEKKVRELLLSNPNSTPDFSVDDSEGVAETNEDF [P0A7G6] | 11.7
MADITLISGSTLGGAEYVAEHLAEKLEEAGFTTETLHGPLLEDLPASGIWLVISSTHGAGDIPDNLSPFYEALQEQKPDLSAVRFGAIGIGSREYDTFCGAIDKLEAELKNSGAKQTGETLKINILDHDIPEDPAEEWLGSWVNLLK | 9.28

* * *

Experiment: total protein half-life in vivo (active degradation + dilution); higher = more stable protein
Settings: wild type E. coli NCM3722; growth: P-lim chemostat; doubling time 12 h
Decide by total protein half-life in vivo: equal to or exceeding 10 h means YES, less means NO.

sequence code | assigned category
MSALFLAIPLTIFVLFVLPIWLWLHYSNRSGRSELSQSEQQRLAQLADEAKRMRERIQALESILDAEHPNWRDR [P0AFM9] | YES
MSDDVALPLEFTDAAANKVKSLIADEDNPNLKLRVYITGGGCSGFQYGFTFDDQVNEGDMTIEKQGVGLVVDPMSLQYLVGGSVDYTEGLEGSRFIVTNPNAKSTCGCGSSFSI [P0ACC3] | NO
MSIKLIAVDMDGTFLSDQKTYNRERFMAQYQQMKAQGIRFVVASGNQYYQLISFFPEIANEIAFVAENGGWVVSEGKDVFNGELSKDAFATVVEHLLTRPEVEIIACGKNSAYTLKKYDDAMKTVAEMYYHRLEYVDNFDNLEDIFFKFGLNLSDELIPQVQKALHEAIGDIMVSVHTGNGSIDLIIPGVHKANGLRQLQKLWGIDDSEVVVFGDGGNDIEMLRQAGFSFAMENAGSAVVAAAKYRAGSNNREGVLDVIDKVLKHEAPFDQ | NO
MLEILYQDEWLVAVNKPSGWLVHRSWLDRDEKVVVMQTVRDQIGQHVFTAHRLDRPTSGVLLMGLSSEAGRLLAQQFEQHQIQKRYHAIVRGWLMEEAVLDYPLVEELDKIADKFAREDKGPQPAVTHYRGLATVEMPVATGRYPTTRYGLVELEPKTGRKHQLRRHLAHLRHPIIGDSKHGDLRQNRSGAEHFGLQRLMLHASQLSLTHPFTGEPLTIHAGLDDTWMQALSQFGWRGLLPENERVEFSAPSGQDGEISS [P0AA41] | YES
MSAKHPVIAVTGSSGAGTTTTSLAFRKIFAQLNLHAAEVEGDSFHRYTRPEMDMAIRKARDAGRHISYFGPEANDFGLLEQTFIEYGQSGKGKSRKYLHTYDEAVPWNQVPGTFTPWQPLPEPTDVLFYEGLHGGVVTPQHNVAQHVDLLVGVVPIVNLEWIQKLIRDTSERGHSREAVMDSVVRSMEDYINYITPQFSRTHLNFQRVPTVDTSNPFAAKGIPSLDESFVVIHFRNLEGIDFPWLLAMLQGSFISHINTLVVPGGKMGLAMELIMLPLVQRLMEGKKIE [P0AEX5] | YES
MLKLTDITWLYHHLPMRFSLTVERGEQVAILGPSGAGKSTLLNLIAGFLTPASGSLTIDGVDHTTMPPSRRPVSMLFQENNLFSHLTVAQNIGLGLNPGLKLNAVQQGKMHAIARQMGIDNLMARLPGELSGGQRQRVALARCLVREQPILLLDEPFSALDPALRQEMLTLVSTSCQQQKMTLLMVSHSVEDAARIATRSVVVADGRIAWQGMTNELLSGKASASALLGITG | YES

* * *

Experiment: total protein half-life in vivo (active degradation + dilution); higher = more stable protein
Details: E. coli NCM3722 delta-clpP; growth: N-lim chemostat; doubling time 6 h
// reported total protein half-life in vivo for each item listed
assay endpoint: total protein half-life in vivo

sequence code | reported
MRYRIFLLFFFALLPTSLVWAAPAQRAFSDWQVTCNNQNFCVARNTGDHNGLVMTLSRSAGAHTDAVLRIERGGLKSPEASEGEIAPRLLLDGEPLALSGDKWRISPWLLVTDDTATITAFLQMIQEGKAITLRDGDQTISLSGLKAALLFIDAQQKRVGSETAWIKKGDEPPLSVPPAPALKEVAVVNPTPTPLSLEERNDLLDYGNWRMNGLRCSLDPLRREVNVTALTDDKALMMISCEAGAYNTIDLAWIVSRKKPLASRPVRLRLPFNNGQETNELELMNATFDEKSRELVTLAKGRGLSDCGIQARWRFDGQRFRLVRYAAEPTCDNWHGPDAWPTLWITR | 5.18 h
MTTMLEVAKRAGVSKATVSRVLSGNGYVSQETKDRVFQAVEESGYRPNLLARNLSAKSTQTLGLVVTNTLYHGIYFSELLFHAARMAEEKGRQLLLADGKHSAEEERQAIQYLLDLRCDAIMIYPRFLSVDEIDDIIDAHSQPIMVLNRRLRKNSSHSVWCDHKQTSFNAVAELINAGHQEIAFLTGSMDSPTSIERLAGYKDALAQHGIALNEKLIANGKWTPASGAEGVEMLLERGAKFSALVASNDDMAIGAMKALHERGVAVPEQVSVIGFDDIAIAPYTVPALSSVKIPVTEMIQEIIGRLIFMLDGGDFSPPKTFSGKLIRRDSLIAPSR | 4.95 h

* * *

Experiment: total protein half-life in vivo (active degradation + dilution); higher = more stable protein
Details: wild type E. coli NCM3722; growth: N-lim chemostat; doubling time 12 h
Some sequences, each annotated with its measured total protein half-life in vivo.

sequence code | total protein half-life in vivo [h]
MKKPLRQQNRQIISYVPRTEPAPPEHAIKMDSFRDVWMLRGKYVAFVLMGESFLRSPAFTVPESAQRWANQIRQEGEVTE [P0AE60] | 6.6
MRRFFWLVAAALLLAGCAGEKGIVEKEGYQLDTRRQAQAAYPRIKVLVIHYTADDFDSSLATLTDKQVSSHYLVPAVPPRYNGKPRIWQLVPEQELAWHAGISAWRGATRLNDTSIGIELENRGWQKSAGVKYFAPFEPAQIQALIPLAKDIIARYHIKPENVVAHADIAPQRKDDPGPLFPWQQLAQQGIGAWPDAQRVNFYLAGRAPHTPVDTASLLELLARYGYDVKPDMTPREQRRVIMAFQMHFRPTLYNGEADAETQAIAEALLEKYGQD | 12.4
MSKNYHIAVLPGDGIGPEVMTQALKVLDAVRNRFAMRITTSHYDVGGAAIDNHGQPLPPATVEGCEQADAVLFGSVGGPKWEHLPPDQQPERGALLPLRKHFKLFSNLRPAKLYQGLEAFCPLRADIAANGFDILCVRELTGGIYFGQPKGREGSGQYEKAFDTEVYHRFEIERIARIAFESARKRRHKVTSIDKANVLQSSILWREIVNEIATEYPDVELAHMYIDNATMQLIKDPSQFDVLLCSNLFGDILSDECAMITGSMGMLPSASLNEQGFGLYEPAGGSAPDIAGKNIANPIAQILSLALLLRYSLDADDAACAIERAINRALEEGIRTGDLARGAAAVSTDEMGDIIARYVAEGV | 3.52
MDHRLLEIIACPVCNGKLWYNQEKQELICKLDNLAFPLRDGIPVLLETEARVLTADESKS [P0AAZ7] | 6.3

* * *

Experiment: total protein half-life in vivo (active degradation + dilution); higher = more stable protein
Details: E. coli NCM3722 delta-smpB; growth: N-lim chemostat; doubling time 6 h
# total protein half-life in vivo values compiled below
assay endpoint: total protein half-life in vivo (h)

sequence code | assay endpoint | unit symbol | reported
MKNKLPPFIEIYRALIATPSISATEEALDQSNADLITLLADWFKDLGFNVEVQPVPGTRNKFNMLASIGQGAGGLLLAGHTDTVPFDDGRWTRDPFTLTEHDGKLYGLGTADMKGFFAFILDALRDVDVTKLKKPLYILATADEETSMAGARYFAETTALRPDCAIIGEPTSLQPVRAHKGHISNAIRIQGQSGHSSDPARGVNAIELMHDAIGHILQLRDNLKERYHYEAFTVPYPTLNLGHIHGGDASNRICACCELHMDIRPLPGMTLNELNGLLNDALAPVSERWPGRLTVDELHPPIPGYECPPNHQLVEVVEKLLGAKTEVVNYCTEAPFIQTLCPTLVLGPGSINQAHQPDEYLETRFIKPTRELITQVIHHFCWH | total protein half-life in vivo | h | 4.29
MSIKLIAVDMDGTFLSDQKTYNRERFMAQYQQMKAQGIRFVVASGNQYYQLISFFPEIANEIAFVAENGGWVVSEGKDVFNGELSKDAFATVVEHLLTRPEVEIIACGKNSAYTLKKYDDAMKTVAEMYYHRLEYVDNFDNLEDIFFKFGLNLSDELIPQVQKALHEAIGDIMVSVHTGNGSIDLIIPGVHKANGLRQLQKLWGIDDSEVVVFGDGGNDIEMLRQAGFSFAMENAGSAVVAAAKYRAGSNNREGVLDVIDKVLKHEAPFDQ | total protein half-life in vivo | h | 1.92
